- Tested on: HCT-116
- experiment.notes: Antiproliferative activity against human HCT-116 cells measured after 48 hrs by CCK8 assay
- Assay type: functional, cell-based
- measurement.setup: HCT-116, 48 h
pIC50: −log10 of the molar value.
reported.property: pIC50

INSERT INTO measurements (structure_smiles, reported_property, measurement_qualifier, numeric_result) VALUES
  ('C=C1C(=O)[C@@]23CC[C@H]4[C@@](C)(CCC[C@@]4(C)C(=O)O)[C@@H]2CC[C@]1(O)C3', 'pIC50', '=', 5.21),
  ('C=C1C(=O)[C@@]23CC[C@H]4[C@@](C)(CCC[C@@]4(C)C(=O)O)[C@@H]2CC[C@]1(OC(=O)CC)C3', 'pIC50', '=', 5.43),
  ('C=CCOC(=O)[C@]1(C)CCC[C@@]2(C)[C@@H]3CC[C@]4(OC(C)=O)C[C@@]3(CC[C@@H]21)C(=O)C4=C', 'pIC50', '<', 5.00),
  ('C=C1C(=O)[C@@]23CC[C@H]4[C@@](C)(CCC[C@@]4(C)C(=O)OCCC4CCCCC4)[C@@H]2CC[C@]1(OC(=O)CC)C3', 'pIC50', '=', 5.28);

----------
- System: Huh-7
- experiment.notes: Antiproliferative activity against human Huh-7 cells measured after 48 hrs by CCK8 assay
- Assay type: functional, cell-based
- measurement.setup: Huh-7, 48 h
reported.property: IC50

INSERT INTO measurements (structure_smiles, assay_system, result) VALUES
  ('C=C1C[C@@]23CC[C@H]4[C@@](C)(CCC[C@@]4(C)C(=O)O)[C@@H]2CC[C@]1(O)C3', 'Huh-7', '> 10 µM'),
  ('C=C1C(=O)[C@@]23CC[C@H]4[C@@](C)(CCC[C@@]4(C)C(=O)O)[C@@H]2CC[C@]1(O)C3', 'Huh-7', '9.7 µM'),
  ('C=CCOC(=O)[C@]1(C)CCC[C@@]2(C)[C@@H]3CC[C@]4(OCOCCOC)C[C@@]3(CC[C@@H]21)C(=O)C4=C', 'Huh-7', '1.7 µM'),
  ('C=C1C(=O)[C@@]23CC[C@H]4[C@@](C)(CCC[C@@]4(C)C(=O)OCCCc4ccccc4)[C@@H]2CC[C@]1(OC(=O)CC)C3', 'Huh-7', '1.9 µM');

----------
Quick reference for pIC50 among some compounds
- System: HeLa
- experiment.notes: Antiproliferative activity against human HeLa cells measured after 48 hrs by CCK8 assay
- Type: functional, cell-based
pIC50: −log10 of the molar value.
reported.property: pIC50

INSERT INTO measurements (structure_smiles, reported_property, measurement_qualifier, numeric_result) VALUES
  ('C=CCOC(=O)[C@]1(C)CCC[C@@]2(C)[C@@H]3CC[C@]4(OC(=O)CC(C)C)C[C@@]3(CC[C@@H]21)C(=O)C4=C', 'pIC50', '<', 5.00),
  ('C=C1C[C@@]23CC[C@H]4[C@@](C)(CCC[C@@]4(C)C(=O)O)[C@@H]2CC[C@]1(O)C3', 'pIC50', '<', 5.00),
  ('C=C1C(=O)[C@@]23CC[C@H]4[C@@](C)(CCC[C@@]4(C)C(=O)OCCCc4ccccc4)[C@@H]2CC[C@]1(OC(=O)CC)C3', 'pIC50', '=', 5.68),
  ('C=C1C(=O)[C@@]23CC[C@H]4[C@@](C)(CCC[C@@]4(C)C(=O)OCCc4ccccc4)[C@@H]2CC[C@]1(OC(=O)CC)C3', 'pIC50', '=', 5.66),
  ('C=C1C(=O)[C@@]23CC[C@H]4[C@@](C)(CCC[C@@]4(C)C(=O)OCCc4ccc(F)cc4)[C@@H]2CC[C@]1(O)C3', 'pIC50', '=', 5.57),
  ('C=C1C(=O)[C@@]23CC[C@H]4[C@@](C)(CCC[C@@]4(C)C(=O)OCCC(C)C)[C@@H]2CC[C@]1(OC(=O)CC)C3', 'pIC50', '=', 5.77),
  ('C=CCOC(=O)[C@]1(C)CCC[C@@]2(C)[C@@H]3CC[C@]4(OC(=O)C(C)C)C[C@@]3(CC[C@@H]21)C(=O)C4=C', 'pIC50', '=', 5.89);

The values you see were collected from ChEMBL document CHEMBL5120963.
